METHOD NOTES: Fluorescence spectroscopy of the sensors (excitation and emission)
Assay type: physicochemical
Method: Fluorescence spectroscopy was performed on a bench top Perkin-Elmer Enspire Multimode Plate Reader. […] 5 replicates of each sensor-metal or sensor-complex solution were used. […] Fluorescence responses to analytes were determined using integrated emission intensity, and for each sensor a control well containing no analyte was included to normalise the response for analysis. The sensors were tested using the procedure described in Example 4, and the obtained data was analysed using LDA. […]
TEST READOUT: excitation wavelength (maximum excitation wavelength of the sensor) (nm)

[[record]]
substance_smiles = "O=S(=O)([O-])c1cc(O)c(N=Nc2c(O)ccc3ccccc23)c2ccccc12.[Na+]"
endpoint_value = 280

[[record]]
substance_smiles = "O=[N+]([O-])c1ccc2c(/N=N/c3ccc4ccccc4c3O)c(O)cc(S(=O)(=O)[O-])c2c1.[Na+]"
endpoint_value = 280

[[record]]
substance_smiles = "O=C1c2ccccc2C2(c3ccc(O)cc3Oc3cc(O)ccc32)N1NC(=S)S"
endpoint_value = 480

[[record]]
substance_smiles = "CCN(CC)c1ccc2c(c1)Oc1cc(N(CC)CC)ccc1C21c2ccccc2C(=O)N1OCc1cn(Cc2ccccc2)nn1"
endpoint_value = 445

[[record]]
substance_smiles = "Cc1cc(=O)oc2c(CN(CC(=O)O)CC(=O)O)c(O)ccc12"
endpoint_value = 380

